Below is a list of entries, each paired with its recorded reverse-splicing fitness value.
B1: Azoarcus group I ribozyme (parent)
chain: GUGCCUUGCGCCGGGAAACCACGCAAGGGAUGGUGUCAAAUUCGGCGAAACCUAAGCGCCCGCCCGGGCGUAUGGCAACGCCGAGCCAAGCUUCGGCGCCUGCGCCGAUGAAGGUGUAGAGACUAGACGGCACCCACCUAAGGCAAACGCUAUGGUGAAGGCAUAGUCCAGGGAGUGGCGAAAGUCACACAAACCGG

Variants of: B1
Assay: reverse-splicing fitness (ratio to wild type); higher = more active; in vitro selection; Mg2+ level not given

>  <mut>
C82U A111C A120G A145U C150A C169A

>  <val>
0.00826

$$$$
>  <mut>
C82A A111C A120G A145C C150U U176C

>  <val>
0.0119

$$$$
>  <mut>
C82G A111C A120G A145G C150U U176G

>  <val>
0.00692

$$$$

Query :: Need reverse-splicing fitness of A120U A145U C150U C169U U176C , thanks.
Result :: 0.0952
